# Tested on: KIT-autoinhibited
# assay conditions: concentration: 1 μM,replicates: in singlicate; n = 1;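 also: KINOMEscan kinase panel screen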
test readout: %Inh (%)
Note: unit % is implicit; provide only the numeric part.

Incoming: For the compound Cl.Cl.Nc1nc(-c2ccc3c(N)n[nH]c3c2)cc(N2CCCC(NC(=O)c3ccccc3)C2)n1 (centres unmarked) , what %Inh is on record?
Outgoing: 0

Incoming: Subsequent entry: Cl.Cl.NC[C@H](Cc1ccc(C(F)(F)F)cc1)NC(=O)c1cc(Br)c(-c2ccnc3[nH]ccc23)s1
Outgoing: 1

Incoming: Try CCN(CC)CCCCNc1ncc2cc(-c3c(Cl)cccc3Cl)c(NC(=O)NC(C)(C)C)nc2n1 next.
Outgoing: 85

Incoming: Proceed to CCN(CC)CCOc1ccc(Nc2ncc3cc(-c4c(Cl)cccc4Cl)c(=O)n(C)c3n2)cc1
Outgoing: 99.9

Incoming: Moving on to Cc1occc1-c1nc(N)c(OC[C@@H](N)Cc2c[nH]c3ccccc23)cc1-c1cc2c(C)n[nH]c2cn1
Outgoing: 0

Incoming: And for CC(C)N1C(=O)Cc2cc(Nc3ncc(C(F)(F)F)c(NCc4cccc(S(C)(=O)=O)c4)n3)ccc21 ?
Outgoing: 33

Incoming: What do you get for C=CC(=O)Nc1cc2c(Nc3ccc(F)c(Cl)c3)ncnc2cc1OCCCN1CCOCC1 ?
Outgoing: 44

Incoming: Try this compound too: Cc1ccc2c(-c3ccncc3)c(-c3ccc(F)cc3)nn2c1.Cl
Outgoing: 11

###

# System: VRK2
# assay conditions: concentration: 1 μM,replicates: in singlicate; n = 1
For each of the compounds below, state its %Inh.
Enter your answer as a number in %; do not include the unit.

Incoming: Which %Inh value is on record for CC(C)N1C(=O)Cc2cc(Nc3ncc(C(F)(F)F)c(NCc4cccc(S(C)(=O)=O)c4)n3)ccc21 ?
Outgoing: 39

Incoming: Can you handle O=C(NCCCN1CCOC1=O)c1cnc(NCc2cc(Cl)ccc2Cl)nc1NC1CCCC1 next?
Outgoing: 7

Incoming: Please do the same for CC(C)Nc1cc(-c2ccc3c(N)n[nH]c3c2)nc(N)n1 as well.
Outgoing: 0

Incoming: Cl.Cl.NC[C@H](CC1CCCCC1)NC(=O)c1cc(Br)c(-c2ccnc3[nH]ccc23)s1 ?
Outgoing: 0

###

# System: ERK8
# Construct: gene MAPK15
# assay conditions: concentration: 1 μM,replicates: in singlicate; n = 1
test readout: %Inh
Give the value; after it, write the unit.

Incoming: Look up %Inh: CCN(CC)CCCCNc1ncc2cc(-c3c(Cl)cccc3Cl)c(NC(=O)NC(C)(C)C)nc2n1
Outgoing: 5%

Incoming: Another compound to look at: Cc1cc(C(=O)Nc2ccc(Oc3ccc4nc(NC(=O)C5CC5)cn4n3)cc2)nn1-c1ccccc1
Outgoing: 10%

Incoming: Repeat for the following compound: C[C@@H](Oc1cc(-c2cnn(C3CCNCC3)c2)cnc1N)c1c(Cl)ccc(F)c1Cl
Outgoing: 0%

###

# System: NEK6
# assay conditions: concentration: 1 μM,replicates: in singlicate; n = 1
test readout: %Inh (%)
Answer in %, number only, no unit symbol.

Incoming: // query %Inh value for entry Cc1cc(C(=O)Nc2ccc(Oc3ccc4nc(NC(=O)C5CC5)cn4n3)cc2)nn1-c1ccccc1
Outgoing: 10

Incoming: And Cc1ccc2c(-c3ccncc3)c(-c3ccc(F)cc3)nn2c1.Cl [GW461484] ?
Outgoing: 0

Incoming: Follow-up item: C=CC(=O)Nc1cc2c(Nc3ccc(F)c(Cl)c3)ncnc2cc1OCCCN1CCOCC1 [GW781483]
Outgoing: 0

Incoming: Also check Cl.Cl.Nc1nc(-c2ccc3c(N)n[nH]c3c2)cc(N2CCCC(NC(=O)c3ccccc3)C2)n1 (stereo not drawn) [GSK2286775]
Outgoing: 0

Incoming: And what about the compound C[C@@H](Oc1cc(-c2cnn(C3CCNCC3)c2)cnc1N)c1c(Cl)ccc(F)c1Cl ?
Outgoing: 14

Incoming: Would you mind doing Cc1n[nH]c2ccc(-c3cc(OC[C@@H](N)Cc4ccccc4)cnc3-c3ccoc3)cc12.O=C(O)C(F)(F)F.O=C(O)C(F)(F)F [GSK507358] as well?
Outgoing: 0
